assay: Pharmacokinetic determination in monkeys after gavage administration (P.O.); format: in vivo, Cynomolgus monkeys (Macaca fascicularis); details: male, cynomolgus monkey, po, 1 mg/kg, plasma
endpoint: MRT inf (h)
I only need the number, in h, no unit after it.

Give its MRT inf value. Item: [2H]C([2H])([2H])OC(=O)N[C@@H]1CCOc2c(-c3cc(F)c4c(ccc(=O)n4C)c3)cncc21 [Compound A50]
13

###

Target: human CYP11B1 enzyme (Homo sapiens, UniProt P15538)
Construct: the ORF of human CYP11B1 or CYP11B2 were transfected into G402 cells
Sequence (P15538 25-503): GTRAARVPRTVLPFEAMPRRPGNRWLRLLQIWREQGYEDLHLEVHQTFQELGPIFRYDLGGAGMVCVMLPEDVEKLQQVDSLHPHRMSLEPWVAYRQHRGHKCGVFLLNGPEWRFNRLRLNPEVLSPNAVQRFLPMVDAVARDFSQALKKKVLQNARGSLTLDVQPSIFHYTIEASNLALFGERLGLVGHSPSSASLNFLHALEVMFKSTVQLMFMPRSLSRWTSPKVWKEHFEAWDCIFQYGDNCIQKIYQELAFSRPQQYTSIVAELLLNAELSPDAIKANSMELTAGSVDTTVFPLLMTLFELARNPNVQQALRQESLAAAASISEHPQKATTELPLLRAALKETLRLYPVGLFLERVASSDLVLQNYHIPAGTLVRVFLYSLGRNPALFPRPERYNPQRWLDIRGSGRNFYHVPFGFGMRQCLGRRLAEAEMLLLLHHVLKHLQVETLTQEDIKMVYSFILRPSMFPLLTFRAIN
Assay: Enzyme inhibition activity assay in G402 cells stably expressing human CYP11B1 (cortisol production from 11-DC, LC/MS)
Settings: 1 µM 11-DC, 16 hours, cortisol detected
Item-by-item account of IC50
Note to self: number, then unit, no commentary.

{"columns": ["molecule", "IC50"],
 "data": [
  ["CNC(=O)N[C@@H]1CCCc2c(-c3ccc4c(c3)COC(=O)N4C)cncc21 [Compound A34]", "294 nM"],
  ["[2H]C([2H])([2H])OC(=O)N[C@@H]1CCOc2c(-c3cc(F)c4c(ccc(=O)n4C)c3)cncc21 [Compound A50]", "2110 nM"],
  ["[2H]C([2H])([2H])NC(=O)N[C@@H]1CCOc2c(-c3ccc4c(c3)cc(C#N)n4C)cncc21 [Compound A38]", "283 nM"],
  ["[2H]C([2H])([2H])OC(=O)N[C@@H]1CCOc2c(-c3ccc4c(c3)COC(=O)N4C)cncc21 [Compound A40]", "487 nM"]
]}

Give its IC50 value. Item: COC(=O)N[C@@H]1CCOc2c(-c3ccc4c(ccc(=O)n4C)c3)cncc21 [Compound A42]
1700 nM

Give its IC50 value. Item: CN(C)C(=O)N[C@@H]1CCOc2c(-c3ccc4c(c3)CCC(=O)N4C)cncc21 [Compound A12]
3120 nM

Give its IC50 value. Item: [2H]C([2H])([2H])OC(=O)N[C@@H]1CCCc2c(-c3ccc4c(c3)COC(=O)N4C)cncc21 [Compound A28]
111 nM

###

Molecular target: human CYP11B1 enzyme (Homo sapiens)
Construct: the ORF of human CYP11B1 or CYP11B2 were transfected into G402 cells
Sequence (P15538 25-503): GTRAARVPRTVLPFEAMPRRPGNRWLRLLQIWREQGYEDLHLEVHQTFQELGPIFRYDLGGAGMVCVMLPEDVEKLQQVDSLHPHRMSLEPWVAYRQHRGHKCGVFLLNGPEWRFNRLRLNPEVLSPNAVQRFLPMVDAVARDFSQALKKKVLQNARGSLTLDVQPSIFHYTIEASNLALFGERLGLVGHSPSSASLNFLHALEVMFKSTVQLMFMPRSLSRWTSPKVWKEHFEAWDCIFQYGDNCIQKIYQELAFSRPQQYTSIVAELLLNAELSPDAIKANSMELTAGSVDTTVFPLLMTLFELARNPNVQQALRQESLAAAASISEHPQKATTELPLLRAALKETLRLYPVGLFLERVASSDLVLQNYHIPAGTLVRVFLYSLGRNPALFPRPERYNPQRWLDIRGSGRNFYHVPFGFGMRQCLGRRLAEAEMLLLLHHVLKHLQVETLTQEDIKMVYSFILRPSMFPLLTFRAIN
Assay: Enzyme inhibition activity assay in G402 cells stably expressing human CYP11B1 (cortisol production from 11-DC, LC/MS)
Conditions: 1 µM 11-DC, 16 hours, cortisol detected
Item-by-item account of IC50
I only need the number, in nM, no unit after it.

Solved entries:
{"columns": ["compound", "testSystem", "IC50 / nM"],
 "data": [
  ["CN(C)C(=O)N[C@@H]1CCCc2c(-c3ccc4c(c3)CCC(=O)N4C)cncc21 [Compound D11]", "human CYP11B1 enzyme (Homo sapiens)", 1060],
  ["CCC(=O)N[C@@H]1CCCc2c(-c3ccc4c(c3)COC(=O)N4C)cncc21 [Compound C07]", "human CYP11B1 enzyme (Homo sapiens)", 1150]
]}

Give its IC50 value. Item: [2H]C([2H])([2H])OC(=O)N[C@@H]1CCOc2c(-c3ccc4c(c3)cc(C#N)n4C)cncc21 [Compound A36]
136

Give its IC50 value. Item: CN(C)C(=O)N[C@@H]1CCCc2c(-c3ccc4c(ccc(=O)n4C)c3)cncc21 [Compound A23]
1920
